TARGET OF ASSAY: soluble guanylate cyclase (human GUCYA3/GUCYB3) overexpressed in CHO cells (Homo sapiens, UniProt Q02108+Q02153)
TEST SUMMARY: CHO cellular assay (cGMP production, HTRF)
STATED CONDITIONS: CHO K1 clone 8E10 overexpressing human sGC, Cisbio HTRF, 1 h room temperature, 1 mM IBMX, 20 uM ODQ, minimum quantification limit 0.5 nM
QUANTITY KIND: EC50 (nM)

Known results for molecules:
STRUCTURE	EC50 [nM]
Cc1cc(C2CCN(CC(F)(F)F)CC2)ccc1OCc1cc(C(C)C)sc1-c1cccc(-n2ncc(C(=O)O)c2C(F)(F)F)n1	370
Cc1csc(-c2cccc(-n3ncc(C(=O)O)c3C(F)(F)F)n2)c1CNc1ccc(C2CCN(C(=O)C3CC3)CC2)cc1	12
CCc1cc(COc2ccc(C3CCN(CC(F)(F)F)CC3)cc2C)c(-c2cccc(-n3ncc(C(=O)O)c3C(F)(F)F)n2)s1	14
CCc1c(C2CCN(C(=O)C3CC3)CC2)ccc(OCc2cc(C)sc2-c2cccc(-n3ncc(C(=O)O)c3C(F)(F)F)n2)c1F	1
CCc1cc(OCc2cc(C)sc2-c2cccc(-n3ncc(C(=O)O)c3C(F)(F)F)n2)cnc1C1CCN(C(=O)C2CC2)CC1	15

(I) Cc1cc(OCc2ccsc2-c2cccc(-n3ncc(C(=O)O)c3C(F)(F)F)n2)ccc1C1CCN(C(=O)C2CC2)CC1
(II) CCc1c(C(=O)O)cnn1-c1cccc(-c2sc(C)c(C)c2COc2ccc(C3CCN(CC(F)(F)F)CC3)cc2C)n1
(III) Cc1cc(COc2ccc(C3CCN(C(=O)C4CC4)CC3)c(CO)c2)c(-c2cccc(-n3ncc(C(=O)O)c3C(F)(F)F)n2)s1
(IV) COc1cc(OCc2ccsc2-c2cccc(-n3ncc(C(=O)O)c3C(F)(F)F)n2)ccc1C1CCN(C(=O)C2CC2)CC1
Provide the items ranked by increasing EC50. # list labels per requested ordering
IV, II, I, III
(IV: 1 nM, II: 2 nM, I: 3 nM, III: 61 nM)

====

TARGET OF ASSAY: soluble guanylate cyclase (human GUCYA3/GUCYB3) overexpressed in CHO cells (Homo sapiens, UniProt Q02108+Q02153)
TEST SUMMARY: CHO cellular assay (cGMP production, HTRF)
STATED CONDITIONS: CHO K1 clone 8E10 overexpressing human sGC, Cisbio HTRF, 1 h room temperature, 1 mM IBMX, 20 uM ODQ, minimum quantification limit 0.5 nM
Description: Chinese hamster ovary (CHO) cells overexpressing soluble guanylate cyclase were generated to test the effect of sGC activators in a cellular context. Human cDNAs for GUCYA3 (RefSeq: NM_000856.3) and GUCYB3 (RefSeq: NM_000857.1) were amplified by PCR from a HUVEC (Human Umbilical Vein Endothelial Cells) cDNA library and cloned into mammalian expression vectors. […] The EC50s are calculated based on the amount of cGMP interpolated from the standard curve, using a 4-parameter sigmoidal dose-response.
QUANTITY KIND: EC50

# input compound: Cc1cc(C2CCN(C(=O)C3CC3)CC2)ccc1OCc1c(C)csc1-c1cccc(-n2ncc(C(=O)O)c2C(F)(F)F)n1 [Example 4-4] ; wanted: its EC50
≤ 0.5 nM

# input compound: Cc1cc(CCc2ccc(C3CCN(C(=O)OC(C)(C)C)CC3)cc2C)c(-c2cccc(-n3ncc(C(=O)O)c3C(F)(F)F)n2)s1 [Example 46] ; wanted: its EC50
3 nM

# input compound: CCc1cc(NCc2cc(C)sc2-c2cccc(-n3ncc(C(=O)O)c3CC)n2)ccc1C1CCN(C(=O)C2CC2)CC1 [Example 37] ; wanted: its EC50
≤ 0.5 nM

====

TARGET OF ASSAY: soluble guanylate cyclase (human GUCYA3/GUCYB3) overexpressed in CHO cells (Homo sapiens, UniProt Q02108+Q02153)
Sequence (Q02108 1-690 partner): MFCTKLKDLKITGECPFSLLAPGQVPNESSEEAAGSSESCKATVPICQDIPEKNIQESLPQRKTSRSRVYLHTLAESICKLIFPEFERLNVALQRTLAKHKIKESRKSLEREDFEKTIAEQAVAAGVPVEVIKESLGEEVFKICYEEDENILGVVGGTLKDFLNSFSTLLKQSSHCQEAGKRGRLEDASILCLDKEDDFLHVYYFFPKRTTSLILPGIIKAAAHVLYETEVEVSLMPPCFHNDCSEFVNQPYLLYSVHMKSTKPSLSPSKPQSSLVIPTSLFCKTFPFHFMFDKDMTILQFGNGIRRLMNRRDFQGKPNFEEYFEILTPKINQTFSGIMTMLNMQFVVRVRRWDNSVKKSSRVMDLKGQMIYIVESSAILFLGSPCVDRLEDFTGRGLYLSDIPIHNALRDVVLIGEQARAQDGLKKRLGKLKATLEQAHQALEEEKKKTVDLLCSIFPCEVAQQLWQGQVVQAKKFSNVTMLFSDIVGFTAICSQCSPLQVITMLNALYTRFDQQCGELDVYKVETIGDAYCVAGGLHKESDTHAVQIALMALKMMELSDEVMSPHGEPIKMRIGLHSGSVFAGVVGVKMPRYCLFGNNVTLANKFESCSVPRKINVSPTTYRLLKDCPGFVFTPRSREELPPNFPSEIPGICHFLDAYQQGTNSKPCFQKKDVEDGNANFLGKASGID
Sequence (Q02153 1-619): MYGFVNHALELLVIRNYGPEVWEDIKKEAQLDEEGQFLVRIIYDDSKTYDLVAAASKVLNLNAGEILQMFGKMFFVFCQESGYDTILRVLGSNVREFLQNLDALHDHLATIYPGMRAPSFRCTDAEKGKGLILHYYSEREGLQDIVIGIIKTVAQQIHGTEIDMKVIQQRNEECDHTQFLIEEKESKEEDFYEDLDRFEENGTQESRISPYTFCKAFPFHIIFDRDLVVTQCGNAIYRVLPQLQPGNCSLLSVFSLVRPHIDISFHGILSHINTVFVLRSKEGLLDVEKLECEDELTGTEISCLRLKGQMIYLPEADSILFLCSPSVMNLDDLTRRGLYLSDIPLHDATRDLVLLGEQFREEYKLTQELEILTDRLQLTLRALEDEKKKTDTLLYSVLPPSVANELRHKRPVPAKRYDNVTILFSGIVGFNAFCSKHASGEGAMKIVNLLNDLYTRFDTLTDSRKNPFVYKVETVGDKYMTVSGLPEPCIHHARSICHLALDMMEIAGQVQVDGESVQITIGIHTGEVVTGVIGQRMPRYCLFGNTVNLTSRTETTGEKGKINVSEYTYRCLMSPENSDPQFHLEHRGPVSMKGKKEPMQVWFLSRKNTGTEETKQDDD
TEST SUMMARY: CHO cellular assay (cGMP production, HTRF)
STATED CONDITIONS: CHO K1 clone 8E10 overexpressing human sGC, Cisbio HTRF, 1 h room temperature, 1 mM IBMX, 20 uM ODQ, minimum quantification limit 0.5 nM
QUANTITY KIND: EC50

COMPOUND	EC50
Cc1cc(COc2ccc(C3CCN(C(=O)C4CC4)CC3)cc2C)c(-c2cccc(-n3ncc(C(=O)O)c3C(F)(F)F)n2)s1 [Example 5]	≤ 500 pM

Consider the additional compound presented here.
# input compound: O=C(O)c1cnn(-c2cccc(-c3sccc3COc3ccc(C4CCN(C(=O)C5CC5)CC4)cc3Cl)n2)c1C(F)(F)F [Example 8] ; wanted: its EC50
≤ 500 pM

====

TARGET OF ASSAY: soluble guanylate cyclase (human GUCYA3/GUCYB3) overexpressed in CHO cells (Homo sapiens, UniProt Q02108+Q02153)
TEST SUMMARY: CHO cellular assay (cGMP production, HTRF)
STATED CONDITIONS: CHO K1 clone 8E10 overexpressing human sGC, Cisbio HTRF, 1 h room temperature, 1 mM IBMX, 20 uM ODQ, minimum quantification limit 0.5 nM
QUANTITY KIND: EC50 (nM)

(I) Cc1cc(C2CCN(C(=O)C3COC3)CC2)ccc1OCc1ccsc1-c1cccc(-n2ncc(C(=O)O)c2C(F)(F)F)n1
(II) O=C(O)c1cnn(-c2cccc(-c3sccc3COc3ccc(C4CCN(CC(F)(F)F)CC4)cc3)n2)c1C(F)(F)F
When their EC50 values are compared, which is larger, I or II ? Choose, then provide that item's label.
II

====

TARGET OF ASSAY: soluble guanylate cyclase (human GUCYA3/GUCYB3) overexpressed in CHO cells (Homo sapiens, UniProt Q02108+Q02153)
Sequence (Q02108 1-690 partner): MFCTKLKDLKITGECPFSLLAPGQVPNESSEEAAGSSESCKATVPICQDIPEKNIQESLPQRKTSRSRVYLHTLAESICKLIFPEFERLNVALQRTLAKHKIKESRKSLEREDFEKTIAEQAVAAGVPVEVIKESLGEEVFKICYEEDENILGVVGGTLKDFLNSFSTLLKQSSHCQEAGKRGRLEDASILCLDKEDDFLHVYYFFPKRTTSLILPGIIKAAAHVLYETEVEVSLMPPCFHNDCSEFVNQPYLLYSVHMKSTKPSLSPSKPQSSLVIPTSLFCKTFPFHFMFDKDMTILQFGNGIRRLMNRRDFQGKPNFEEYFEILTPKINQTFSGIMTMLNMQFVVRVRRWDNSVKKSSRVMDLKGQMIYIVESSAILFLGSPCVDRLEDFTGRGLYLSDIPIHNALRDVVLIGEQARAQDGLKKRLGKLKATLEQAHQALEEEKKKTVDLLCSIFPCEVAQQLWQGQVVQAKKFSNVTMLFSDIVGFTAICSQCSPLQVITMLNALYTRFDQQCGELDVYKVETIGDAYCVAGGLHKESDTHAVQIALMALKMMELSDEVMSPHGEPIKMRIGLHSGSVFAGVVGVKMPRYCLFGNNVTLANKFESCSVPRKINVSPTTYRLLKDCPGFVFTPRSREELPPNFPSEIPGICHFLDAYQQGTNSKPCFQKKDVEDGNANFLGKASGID
Sequence (Q02153 1-619): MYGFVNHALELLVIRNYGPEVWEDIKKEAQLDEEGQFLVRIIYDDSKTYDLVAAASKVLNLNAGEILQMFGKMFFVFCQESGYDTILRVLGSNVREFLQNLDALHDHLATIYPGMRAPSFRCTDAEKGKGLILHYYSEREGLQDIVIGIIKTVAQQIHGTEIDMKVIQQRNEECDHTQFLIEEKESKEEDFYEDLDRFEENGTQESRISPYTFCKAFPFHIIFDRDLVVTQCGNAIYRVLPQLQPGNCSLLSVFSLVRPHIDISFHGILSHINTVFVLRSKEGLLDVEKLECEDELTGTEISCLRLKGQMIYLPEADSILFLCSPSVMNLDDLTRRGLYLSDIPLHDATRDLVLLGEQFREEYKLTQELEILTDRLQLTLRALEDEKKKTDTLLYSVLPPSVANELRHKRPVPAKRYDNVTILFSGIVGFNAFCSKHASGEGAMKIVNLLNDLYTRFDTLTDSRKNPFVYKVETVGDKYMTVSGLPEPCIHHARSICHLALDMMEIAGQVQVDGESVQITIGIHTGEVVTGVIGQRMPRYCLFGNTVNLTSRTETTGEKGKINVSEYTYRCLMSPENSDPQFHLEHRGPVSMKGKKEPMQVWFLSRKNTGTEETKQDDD
TEST SUMMARY: CHO cellular assay (cGMP production, HTRF)
STATED CONDITIONS: CHO K1 clone 8E10 overexpressing human sGC, Cisbio HTRF, 1 h room temperature, 1 mM IBMX, 20 uM ODQ, minimum quantification limit 0.5 nM
Reported EC50 is given for each of the following compounds.

Known results for compounds:
COMPOUND	QUANTITY KIND	RESULT
Cc1cc(CNc2ccc(C3CCN(C(=O)C4CC4)CC3)cc2)c(-c2cccc(-n3ncc(C(=O)O)c3C)n2)s1 [Example 16-3]	EC50	≤ 0.5 nM
Cc1cc(C2CCN(C(=O)C3CC3)CC2)ccc1OCc1c(-c2cccc(-n3ncc(C(=O)O)c3C(F)(F)F)n2)sc(C)c1C [Example 6-8]	EC50	≤ 0.5 nM

Consider the additional compound presented here.
# input compound: CCc1c(C(=O)O)cnn1-c1cccc(-c2sc(C)cc2COc2ccc(C3CCN(C(=O)C4CC4)CC3)cc2C)n1 [Example 35-10] ; wanted: its EC50
≤ 0.5 nM
